System: Haemophilus influenzae
Assay: Antibacterial activity against Haemophilus influenzae 1218
Assay type: functional
observation-type: MIC (µg/mL)

# smiles, assay-target, MIC / µg/mL
rows = [
    ("CC[C@H]1OC(=O)[C@H](C)C(=O)[C@H](C)[C@@H](O[C@@H]2O[C@H](C)C[C@H](N(C)C)[C@H]2O)[C@@](C)(OC)C[C@@H](C)C(=O)[C@H](C)[C@H]2N(C/C=C/Cn3cnc(-c4cccnc4)c3)C(=O)N[C@]12C", "Haemophilus influenzae", 2),
    ("CC[C@H]1OC(=O)[C@@](C)(F)C(=O)[C@H](C)[C@@H](O[C@@H]2O[C@H](C)C[C@H](N(C)C)[C@H]2O)[C@@](C)(OC)C[C@@H](C)C(=O)[C@H](C)[C@H]2N(C/C=C/Cn3cnc4cccnc43)C(=O)N(C)[C@]12C", "Haemophilus influenzae", 0.25),
]

(P) CC[C@H]1OC(=O)[C@@](C)(F)C(=O)[C@H](C)[C@@H](O[C@@H]2O[C@H](C)C[C@H](N(C)C)[C@H]2O)[C@@](C)(OC)C[C@@H](C)C(=O)[C@H](C)[C@H]2N(C/C=C/Cn3cnc(-c4cccnc4)c3)C(=O)N[C@]12C
(Q) CC[C@H]1OC(=O)[C@H](C)C(=O)[C@H](C)[C@@H](O[C@@H]2O[C@H](C)C[C@H](N(C)C)[C@H]2O)[C@@](C)(OC)C[C@@H](C)C(=O)[C@H](C)[C@H]2N(C/C=C/Cn3cnc4cccnc43)C(=O)N[C@]12C
Query block: Larger number for MIC: P , or Q ? Bench note: the answer is the label of the chosen record.
Result block: Q
(Q: 1 µg/mL, P: 0.5 µg/mL)

====

System: Staphylococcus aureus
Assay: Antibacterial activity against erythromycin susceptible Staphylococcus aureus 1146
Format: functional
observation-type: MIC (µg/mL)

Please review the entries below; each comes with its answer.
# smiles, observation-type, measurement
rows = [
    ("CC[C@H]1OC(=O)[C@@](C)(F)C(=O)[C@H](C)[C@@H](O[C@@H]2O[C@H](C)C[C@H](N(C)C)[C@H]2O)[C@@](C)(OC)C[C@@H](C)C(=O)[C@H](C)[C@H]2N(C/C=C/Cn3cnc(-c4cccnc4)c3)C(=O)N[C@]12C", "MIC", 0.063),
    ("CC[C@H]1OC(=O)[C@@](C)(F)C(=O)[C@H](C)[C@@H](O[C@@H]2O[C@H](C)C[C@H](N(C)C)[C@H]2O)[C@@](C)(OC)C[C@@H](C)C(=O)[C@H](C)[C@H]2N(C/C=C/Cn3cnc(-c4cccnc4)c3)C(=O)N(C)[C@]12C", "MIC", 0.063),
    ("CC[C@H]1OC(=O)[C@@](C)(F)C(=O)[C@H](C)[C@@H](O[C@@H]2O[C@H](C)C[C@H](N(C)C)[C@H]2O)[C@@](C)(OC)C[C@@H](C)C(=O)[C@H](C)[C@H]2N(C/C=C/Cn3cnc4cccnc43)C(=O)N(C)[C@]12C", "MIC", 0.063),
    ("CC[C@H]1OC(=O)[C@H](C)C(=O)[C@H](C)[C@@H](O[C@@H]2O[C@H](C)C[C@H](N(C)C)[C@H]2O)[C@@](C)(OC)C[C@@H](C)C(=O)[C@H](C)[C@H]2N(C/C=C/Cn3cnc4cccnc43)C(=O)N[C@]12C", "MIC", 0.13),
    ("CC[C@H]1OC(=O)[C@H](C)C(=O)[C@H](C)[C@@H](O[C@@H]2O[C@H](C)C[C@H](N(C)C)[C@H]2O)[C@](C)(OC)C[C@@H](C)C(=O)[C@H](C)[C@H]2N(CCCCn3cnc(-c4cccnc4)c3)C(=O)O[C@]12C", "MIC", 0.063),
]

(1) CC[C@H]1OC(=O)[C@H](C)C(=O)[C@H](C)[C@@H](O[C@@H]2O[C@H](C)C[C@H](N(C)C)[C@H]2O)[C@@](C)(OC)C[C@@H](C)C(=O)[C@H](C)[C@H]2N(C/C=C/Cn3cnc(-c4cccnc4)c3)C(=O)N[C@]12C
(2) CC[C@H]1OC(=O)[C@@](C)(F)C(=O)[C@H](C)[C@@H](O[C@@H]2O[C@H](C)C[C@H](N(C)C)[C@H]2O)[C@@](C)(OC)C[C@@H](C)C(=O)[C@H](C)[C@H]2N(C/C=C/Cn3cnc4cccnc43)C(=O)N[C@]12C
Query block: Larger number for MIC: 1 , or 2 ? Bench note: the answer is the label of the chosen record.
Result block: 1
(1: 0.25 µg/mL, 2: 0.063 µg/mL)
